Note to self: these compounds have IC50 reported for Corticotropin-releasing factor receptor 1 (Homo sapiens, UniProt P34998) in various publications.
One number for each entry, in nM.

Below: 6 compounds and their reported IC50.
- COCc1cc(OC)c(-c2csc3c(N(CC4CC4)C4CCCOC4)c(OC)nn23)c(OC)c1 (centres unmarked): 37
- CCCC(=O)N1CCc2c(C)nc3c(-c4c(C)cc(C)cc4C)c(C)nn3c21: 1400
- COCc1cc(OC)c(-c2csc3c(N(CC4CC4)C4CCOC4)c(OC)nn23)c(OC)c1 (centres unmarked): 56
- COc1cc(C)cc(OC)c1-c1csc2c(N(CC3CC3)CC3CCOC3)c(OC)nn12 (centres unmarked): 33
- COCc1cc(OC)c(-c2csc3c(N(C4CCC4)C4CCOC4)c(OC)nn23)c(OC)c1 (centres unmarked): 52
- CCOCCN(CC1CC1)c1c(OC)nn2c(-c3c(OC)cc(COC)cc3OC)csc12: 48

Items follow; give IC50 for each.
1. CCCN(c1c(OC)nn2c(-c3c(OC)cc(C4CC4)cc3OC)csc12)C1CCOCC1
2. CCCN(c1c(OC)nn2c(-c3c(OC)cc(COCC)cc3OC)csc12)C1CCOC1 (centres unmarked)
3. COCCN(CC(C)C)c1c(SC)nn2c(-c3c(C)cc(C)cc3OC)cccc12

a:
[39, 26, 50]

====

Note to self: these compounds have pIC50 reported for UniProtKB P34998 in various publications.
Answers are plain numbers, as −log10 of the molar value.

Below: 7 compounds and their reported pIC50.
• COCc1cc(OC)c(-c2csc3c(N(CC4CCC4)C4CCOCC4)c(OC)nn23)c(OC)c1 = 7.34
• CCN(c1c(OC)nn2c(-c3c(OC)cc(COC)cc3OC)csc12)C1CCC1 = 7.62
• COCc1cc(OC)c(-c2csc3c(N(CC(C)C)CC4(OC)CC4)c(OC)nn23)c(OC)c1 = 7.43
• CCOCc1cc(OC)c(-c2c(C)oc3c(N(CC4CCOCC4)CC4CC4)c(C)nn23)c(OC)c1 = 7.21
• CCCN(Cc1ccncc1)c1c(OC)nn2c(-c3c(OC)cc(COC)cc3OC)csc12 = 7.28
• CCc1cc(OC)c(-c2csc3c(N(CC4CC4)CC4CCOC4)c(OC)nn23)c(OC)c1 (centres unmarked) = 7.36
• CCN(c1c(OC)nn2c(-c3c(OC)cc(C4CC4)cc3OC)csc12)C1CCOCC1 = 7.21

q: Find pIC50 (UniProtKB P34998) for the entry COCCCN(c1c(OC)nn2c(-c3c(OC)cc(COC)cc3OC)csc12)C1CCCC1
a: 7.21

====

Note to self: these compounds have log10 of IC50 reported for Corticotropin-releasing factor receptor 1 (Homo sapiens, UniProt P34998) in various publications.
Give log10 of IC50, with IC50 taken in nM.

• COCCCN(c1c(OC)nn2c(-c3c(Cl)cc(COC)cc3OC)csc12)C1CCCC1 = 1.82
• CCCN(CCC)c1c(C)nn2c(-c3c(OC)cc(COC)cc3OC)c(SC)sc12 = 1.59
• CCc1nn2c(-c3c(OC)cc(COC)cc3OC)c(C)oc2c1N(CC1CC1)CC1COCOC1 = 2.08
• COCc1cc(OC)c(-c2cccc3c(N(CC4CC4)CC4CCOC4)c(SC)nn23)c(OC)c1 (stereo not shown) = 1.48
• CCCN(c1c(OC)nn2c(-c3c(OC)cc(COC)cc3OC)csc12)C1CCOC1 (stereo not shown) = 1.71

Items follow; give log10 of IC50 for each.
1. COc1cc(Cl)cc(OC)c1-c1csc2c(N(CC3CC3)CC3CCOC3)c(OC)nn12 (stereo not shown)
2. CCOCc1cc(OC)c(-c2c(C)oc3c(N(CC4CC4)CC4CCOC4)c(CC)nn23)c(OC)c1 (stereo not shown)
3. CCc1nn2c(-c3ccc(Cl)cc3Cl)cccc2c1N(CCOC)CC(C)C

a:
1. 1.69
2. 1.64
3. 1.74

====

Note to self: these compounds have IC50 reported for Corticotropin-releasing factor receptor 1 (Homo sapiens, UniProt P34998) in various publications.
Numbers only, in nM.

Below: 2 compounds and their reported IC50.
* COCc1cc(OC)c(-c2csc3c(N(CCC(C)OC)CC4CC4)c(OC)nn23)c(OC)c1 (centres unmarked) | 87
* CCCN(CCC)c1c(SC)nn2c(-c3ccc(Cl)cc3Cl)cccc12 | 90

Items follow; give IC50 for each.
1. CCCN(CCC)c1c(CC)nn2c(-c3ccc(OC)cc3OC)cccc12
2. CCCCN(c1c(CC)nn2c(-c3c(OC)cc(COC)cc3OC)c(C)oc12)C1CCOCC1

a:
[160, 98]

q: Quick one: IC50 of CCN(CC1C2COCC21)c1c(OC)nn2c(-c3c(OC)cc(C4CC4)cc3OC)csc12 (single isomer, unassigned; diastereomer 1) ?
a: 80

====

Note to self: these molecules have pIC50 reported for UniProt P34998 in various publications.
Answers are plain numbers, as −log10 of the molar value.

Below: 7 molecules and their reported pIC50.
• COCc1cc(OC)c(-c2csc3c(N(CC4CC4)CC4C5COCC54)c(OC)nn23)c(OC)c1 (single isomer, unassigned; diastereomer 2) = 7.21
• CCc1nn2c3c(c(C)nc2c1-c1c(C)cc(C)cc1C)CCN3C(CC)CC = 5.82
• COc1cc(C2CC2)cc(OC)c1-c1csc2c(N(CC3CC3)CC3CCOC3)c(OC)nn12 (centres unmarked) = 7.48
• CCCN(c1c(OC)nn2c(-c3c(OC)cc(C)cc3OC)csc12)C1CCOCC1 = 7.25
• CCCCN(c1c(OC)nn2c(-c3c(OC)cc(COC(C)C)cc3OC)csc12)C1CCOCC1 = 7.13
• COCc1cc(OC)c(-c2csc3c(N(CCOC(C)C)CC4CC4)c(OC)nn23)c(OC)c1 = 7.23
• CCc1nn2c(-c3c(OC)cc(COC)cc3OC)c(C)oc2c1N(CC(C)C)CC1CCOCC1 = 7.37

// next entry
q: Quick one: pIC50 of COCc1cc(OC)c(-c2csc3c(N(CC(C)C)C4CCOC4)c(OC)nn23)c(OC)c1 (centres unmarked) ?
a: 7.35
